# SYSTEM: T1, Human Notch4-NRR domain Fc fusion protein (human, UniProt Q99466 1046-1445, limits assumed)
# T1 construct: Expressed in a CHO cell line, used from culture supernatant; 1 is named; also called Human Notch4-NRR Fusion Protein; not shown: Fc
# T1 sequence: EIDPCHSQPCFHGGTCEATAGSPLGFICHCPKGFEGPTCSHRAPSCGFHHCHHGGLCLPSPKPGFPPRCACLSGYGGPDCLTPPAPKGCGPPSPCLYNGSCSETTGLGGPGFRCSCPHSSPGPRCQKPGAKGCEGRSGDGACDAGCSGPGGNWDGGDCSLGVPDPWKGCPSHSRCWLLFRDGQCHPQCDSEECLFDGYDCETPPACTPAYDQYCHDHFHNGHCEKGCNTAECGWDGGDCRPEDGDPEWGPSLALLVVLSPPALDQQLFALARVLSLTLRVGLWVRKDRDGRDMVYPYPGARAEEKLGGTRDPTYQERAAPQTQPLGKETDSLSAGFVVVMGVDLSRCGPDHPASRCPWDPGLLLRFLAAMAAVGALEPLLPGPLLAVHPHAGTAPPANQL
# METHOD_SUMMARY: SPR (Biacore) as for Table 30; Notch4-NRR-Fc captured, antibody injected; averaged, N=4
In this section we review reported koff values for a set of binders.
Lab book: enter the figure in s⁻¹, no units written.

Task: Could you please provide reported koff for HK2L2 (antibody, human IgG2, kappa, V domains shown, Humanized IgG2 (V234A, G237A)/κ; also called No. 12) VH: EVQLVESGGGLVQPGGSLRLSCAASGFTFSSYGMSWVRQAPGKGLELVSTINSNGGRTYYPDSVKGRFTISRDNSKNTLYLQMGSLRAEDMAVYYCARDQGFAYWGQGTLVTVSS VL: DIQMTQSPSSLSASVGDRVTITCKASQDVGTAVAWYQQKPGKVPKLLIYWASTRHTGVPSRFSGSGSGTDFTLTISSLQPEDVATYFCQQYSSYPWTFGQGTKVEIKR ? Thanks!
Output: 0.00157

Task: Tell me koff reported for HK3L2 (antibody, human IgG2, kappa, V domains shown, Humanized IgG2 (V234A, G237A)/κ; also called No. 17) VH: EVQLVESGGGLVQPGGSLRLSCAASGFTFSSYGMSWVRQAPGKGLELVATINSNGGRTYYPDSVKGRFTISRDNSKNTLYLQMGSLKAEDMAVYYCARDQGFAYWGQGTLVTVSS VL: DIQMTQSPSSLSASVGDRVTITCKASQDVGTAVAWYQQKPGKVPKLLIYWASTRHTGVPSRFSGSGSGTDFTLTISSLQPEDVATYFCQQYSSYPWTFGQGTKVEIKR
Output: 0.00145

Task: Report koff, nothing else, for this binder: HK3L1 (antibody, human IgG2, kappa, V domains shown, Humanized IgG2 (V234A, G237A)/κ; also called No. 16) VH: EVQLVESGGGLVQPGGSLRLSCAASGFTFSSYGMSWVRQAPGKGLELVATINSNGGRTYYPDSVKGRFTISRDNSKNTLYLQMGSLKAEDMAVYYCARDQGFAYWGQGTLVTVSS VL: DIQMTQSPSSLSASVGDRVTITCKASQDVGTAVAWYQQKPGKVPKLLIYWASTRHTGVPSRFSGSGSGTDFTLTISSLQPEDVATYYCQQYSSYPWTFGQGTKVEIKR
Output: 0.00133
